# TARGET_ENTITY: ATX (Homo sapiens, UniProt Q13822)
# MEASUREMENT_PARAMETERS: FS-3 substrate
PARAMETER_MEASURED: Inhibition Mechanism

[
  {
    "SMILES": "CCn1cc(C(=O)O)c(=O)c2cnc(N3CCN(C(=S)Nc4cc(C)cc(C)c4)CC3)nc21",
    "TARGET_ENTITY": "ATX (Homo sapiens, UniProt Q13822)",
    "ASSAY_RESULT": "Mixed"
  },
  {
    "SMILES": "CCn1cc(C(=O)O)c(=O)c2cnc(N3CCN(C(=S)Nc4cccc(C)c4)CC3)nc21",
    "TARGET_ENTITY": "ATX (Homo sapiens, UniProt Q13822)",
    "ASSAY_RESULT": "Mixed"
  },
  {
    "SMILES": "CCn1cc(C(=O)O)c(=O)c2cnc(N3CCN(C(=S)Nc4ccc(C(F)(F)F)cc4)CC3)nc21",
    "TARGET_ENTITY": "ATX (Homo sapiens, UniProt Q13822)",
    "ASSAY_RESULT": "Uncompetitive"
  },
  {
    "SMILES": "CCn1cc(C(=O)O)c(=O)c2cnc(N3CCN(C(=S)Nc4cc(Cl)cc(Cl)c4)CC3)nc21",
    "TARGET_ENTITY": "ATX (Homo sapiens, UniProt Q13822)",
    "ASSAY_RESULT": "Mixed"
  },
  {
    "SMILES": "CCn1cc(C(=O)O)c(=O)c2cnc(N3CCN(C(=S)Nc4ccc(Cl)cc4)CC3)nc21",
    "TARGET_ENTITY": "ATX (Homo sapiens, UniProt Q13822)",
    "ASSAY_RESULT": "Mixed"
  },
  {
    "SMILES": "CCn1cc(C(=O)O)c(=O)c2cnc(N3CCN(C(=S)Nc4ccc(I)cc4)CC3)nc21",
    "TARGET_ENTITY": "ATX (Homo sapiens, UniProt Q13822)",
    "ASSAY_RESULT": "Mixed"
  },
  {
    "SMILES": "CCn1cc(C(=O)O)c(=O)c2cnc(N3CCN(C(=S)Nc4ccc5nsnc5c4)CC3)nc21",
    "TARGET_ENTITY": "ATX (Homo sapiens, UniProt Q13822)",
    "ASSAY_RESULT": "Competitive"
  },
  {
    "SMILES": "CCn1cc(C(=O)O)c(=O)c2cnc(N3CCN(C(=S)Nc4cc(C(F)(F)F)cc(C(F)(F)F)c4)CC3)nc21",
    "TARGET_ENTITY": "ATX (Homo sapiens, UniProt Q13822)",
    "ASSAY_RESULT": "Competitive"
  },
  {
    "SMILES": "CCn1cc(C(=O)O)c(=O)c2cnc(N3CCN(C(=S)Nc4cccc(I)c4)CC3)nc21",
    "TARGET_ENTITY": "ATX (Homo sapiens, UniProt Q13822)",
    "ASSAY_RESULT": "Uncompetitive"
  },
  {
    "SMILES": "CCn1cc(C(=O)O)c(=O)c2cnc(N3CCN(C(=S)Nc4cccc(C(F)(F)F)c4)CC3)nc21",
    "TARGET_ENTITY": "ATX (Homo sapiens, UniProt Q13822)",
    "ASSAY_RESULT": "Competitive"
  },
  {
    "SMILES": "CCn1cc(C(=O)O)c(=O)c2cnc(N3CCN(C(=S)Nc4cccc(Cl)c4)CC3)nc21",
    "TARGET_ENTITY": "ATX (Homo sapiens, UniProt Q13822)",
    "ASSAY_RESULT": "Mixed"
  }
]
